Assayed target: Trace amine-associated receptor 1 (Homo sapiens)
Assay details: TAAR1 activation by candidate antagonists – cell-based, fluorescence, counter-screen for TAAR1 antagonist project (AID 651955);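 further: CHO cells stably expressing TAAR1 with calcium dye readout; 0% = DMSO vehicle and 100% = full agonist response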
Conditions: hTAAR1 cell line, agonist mode, at 3 µM, hits give high values
The whole screen tested about 2,400 compounds, of which about 40 (2%) were called active. These entries were drawn from the full list.
Answer each item with its documented activation.
Give the number; % is assumed, so skip it.

Here C[C@H](O)[C@@H]1C(=O)N2CCc3c([nH]c4c(-c5ccc6c(c5)OCO6)cccc34)[C@@H]2C[C@@H]1N(C)C(=O)c1ccco1 was tested on Trace amine-associated receptor 1 (Homo sapiens), and its activation came to 7.7

Here O=C(NCc1ccc2c(c1)OCO2)c1c(-c2ccsc2)sc2ccccc12 was tested on Trace amine-associated receptor 1 (Homo sapiens), and its activation came to -1.93

Here O=C(CCc1ccccc1)Nc1cccc(-c2nnc(-c3ccco3)o2)c1 was tested on Trace amine-associated receptor 1 (Homo sapiens), and its activation came to 7.95

Here CCOC(=O)C1=C(NC(=S)NC(=O)c2ccccc2)c2ccccc2CC1(C)C was tested on Trace amine-associated receptor 1 (Homo sapiens), and its activation came to 31.1

Here CC(=O)n1cc([C@H]2C=C(C(=O)N3CCOCC3)O[C@@H](OCc3ccc(CO)cc3)C2)c2ccccc21 was tested on Trace amine-associated receptor 1 (Homo sapiens), and its activation came to 9.37

Here COC(=O)Cc1nnn2c1[C@H](C)[C@H](c1ccccc1[N+](=O)[O-])OCC2 was tested on Trace amine-associated receptor 1 (Homo sapiens), and its activation came to 1.8

Here CCC(=O)Oc1cccc(C(=O)Nc2ccc(-c3nnc(-c4ccco4)o3)cc2)c1 was tested on Trace amine-associated receptor 1 (Homo sapiens), and its activation came to 3.83

Here CC(=O)OCCN(CCCn1c(-c2ccncc2)nc2ccccc21)c1nc(-c2ccc(C)cc2)cs1 was tested on Trace amine-associated receptor 1 (Homo sapiens), and its activation came to 2.91

Here COc1ccc(CCNC(=O)c2ccc(CS(=O)(=O)c3ccc(Br)cc3)o2)cc1OC was tested on Trace amine-associated receptor 1 (Homo sapiens), and its activation came to 12.3

###

Assayed target: Trace amine-associated receptor 1 (Homo sapiens) (UniProt Q96RJ0)
Sequence (Q96RJ0 whole entry, looked up): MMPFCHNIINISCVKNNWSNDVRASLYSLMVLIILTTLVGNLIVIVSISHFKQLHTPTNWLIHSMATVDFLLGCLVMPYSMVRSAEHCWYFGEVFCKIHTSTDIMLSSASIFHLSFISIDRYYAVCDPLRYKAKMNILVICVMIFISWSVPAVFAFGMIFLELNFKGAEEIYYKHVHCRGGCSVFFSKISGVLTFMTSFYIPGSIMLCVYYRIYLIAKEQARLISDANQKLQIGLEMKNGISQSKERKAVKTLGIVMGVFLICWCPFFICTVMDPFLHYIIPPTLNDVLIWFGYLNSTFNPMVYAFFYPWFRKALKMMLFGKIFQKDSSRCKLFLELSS
Assay details: TAAR1 activation by candidate antagonists – cell-based, fluorescence, counter-screen for TAAR1 antagonist project (AID 651955)
Conditions: hTAAR1 cell line, agonist mode, at 3 µM, hits give high values
Out of some 2,400 compounds screened, about 40 (2%) were called active. Not all results are given here.
Answer each item with its documented activation.
Give the number; % is assumed, so skip it.

Entry under test: CC(=O)c1ccccc1OCc1ccc(C(=O)c2ccccc2)cc1 . Its activation was 6.46

Entry under test: Oc1ccc(/C=N/Nc2nc(-c3ccccc3F)nc3ccccc23)c(O)c1 . Its activation was 9.34

Entry under test: CCNS(=O)(=O)c1ccc(CCC(=O)N2CCN(c3cc(Cl)ccc3C)CC2)cc1 . Its activation was 17.4

Entry under test: O=C(O)c1ccc(NC(=O)c2cn(-c3ccccc3)nc2-c2ccc(Cl)cc2)cc1 . Its activation was -1.05

Entry under test: O=C(COC(=O)c1c2c(nc3ccccc13)CCCC2)c1ccc(Br)s1 . Its activation was 0.2

Entry under test: Cc1ccc(NC(=O)c2ccc(CSc3ncnc4nc[nH]c34)cc2)c(C)c1 . Its activation was 3.79

Entry under test: CC(=O)Nc1ccc(NC(=O)COC(=O)C2CCC(C(C)(C)C)CC2)cc1 (configuration not stated) . Its activation was 23.7

Entry under test: COc1ccc(-c2cc(C(=O)N(C)Cc3ccccc3)c3ccccc3n2)cc1 . Its activation was 1.41

Entry under test: COC(=O)[C@@]1(Sc2ccc(C)cc2)CC(=O)N(c2cccc(SC)c2)[C@@H]1c1ccccc1 . Its activation was 9.64

Entry under test: Cc1ccccc1NC(=O)Cc1nc(COC(=O)C(C)(C)Oc2ccc(Cl)cc2)cs1 . Its activation was 10.5

Entry under test: Cc1ccc2c(c1)N(CC(=O)NCCc1ccc(Cl)cc1)C(=O)c1cccnc1O2 . Its activation was 5.11

Entry under test: COc1ccc(NC(=O)c2cc(-c3ccc(C)o3)nc3ccccc23)cc1 . Its activation was 6.61

Entry under test: O=C(N/N=C/c1ccc(OC(=O)c2ccccc2Cl)cc1)c1ccc(O)cc1 . Its activation was 13.1

Entry under test: Cc1onc(-c2c(F)cccc2Cl)c1C(=O)Nc1cccc(S(=O)(=O)N2CCCCC2)c1 . Its activation was 7.98

Entry under test: COc1ccc(C(=O)Nc2cccc(NC(=O)c3ccc(OC)cc3OC)n2)c(OC)c1 . Its activation was 6.39

Entry under test: OC(c1ccccc1)(c1ccccc1)C1CCN(CCCOc2ccc(-c3ccsc3)cc2)CC1 . Its activation was 33.1

Entry under test: COc1cc(SC#N)ccc1N=Cc1c(C)[nH]n(-c2ccc(C)cc2)c1=O . Its activation was 1.06

###

Assayed target: Trace amine-associated receptor 1 (Homo sapiens) (UniProt Q96RJ0)
Assay details: TAAR1 activation by candidate antagonists – cell-based, fluorescence, counter-screen for TAAR1 antagonist project (AID 651955);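 further: CHO cells stably expressing TAAR1 with calcium dye readout; 0% = DMSO vehicle and 100% = full agonist response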
Conditions: hTAAR1 cell line, agonist mode, at 3 µM
Screen size: about 2,400 compounds; about 40 (2%) were called active. Cut-off read from the data, not from the text of the source: active = activation above about 37%; inactive = the rest. A selection follows.
In this exercise, the only acceptable responses are t (active), f (inactive)

Req: Per the assay record, what outcome was assigned to COc1ccc(-c2nn(-c3ccccc3)cc2C(=O)Nc2nccs2)cc1OC ?
Resp: f

Req: Per the assay record, what outcome was assigned to COc1ccc(-c2cc(C(=O)N(C)CC(=O)Nc3ccccc3Cl)c3ccccc3n2)cc1OC ?
Resp: f

Req: Per the assay record, what outcome was assigned to COC(=O)C1=C(C)N(Cc2ccc(F)cc2)C(=S)NC1c1cccc(Cl)c1 (centres undefined) ?
Resp: f

Req: Per the assay record, what outcome was assigned to COc1ccc(CCNC2=C(Cl)C(=O)N(Cc3ccccc3)C2=O)cc1OC ?
Resp: f

Req: Per the assay record, what outcome was assigned to Cn1c2ccccc2c(=O)c2c(=O)n(Cc3ccco3)c(COc3ccccc3)nc21 ?
Resp: t

Req: Per the assay record, what outcome was assigned to Cc1ccc(C)c(N2CCN(C(=O)CCCCCn3c(=S)[nH]c4ccc(N5CCOCC5)cc4c3=O)CC2)c1 ?
Resp: f

Req: Per the assay record, what outcome was assigned to CCN=C1SC(CC(=O)Nc2ccc(C)cc2)C(=O)N1CC (centres undefined) ?
Resp: f

Req: Per the assay record, what outcome was assigned to NNC(=O)CNC(c1ccccc1)c1cc(Cl)ccc1NC(=O)c1ccccc1 (centres undefined) ?
Resp: f

Req: Per the assay record, what outcome was assigned to C[C@@H]1CN([C@@H](C)CO)S(=O)(=O)c2ccc(C#Cc3cccc(F)c3)cc2O[C@H]1CN(C)S(=O)(=O)c1cn(C)cn1 ?
Resp: f

###

Assayed target: Trace amine-associated receptor 1 (Homo sapiens)
Assay details: TAAR1 activation by candidate antagonists – cell-based, fluorescence, counter-screen for TAAR1 antagonist project (AID 651955);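 further: CHO cells stably expressing TAAR1 with calcium dye readout; 0% = DMSO vehicle and 100% = full agonist response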
Conditions: hTAAR1 cell line, agonist mode, at 3 µM, hits give high values
Among all 2,400 compounds or so, about 40 (2%) were called active. Only a sample is shown.
Measured property: activation (%)
Give the number; % is assumed, so skip it.

Entry under test: C/C(=N\Nc1ncc(Cl)cc1Cl)c1ccc(S(=O)(=O)NCc2ccco2)cc1 . Its activation was -4.54

Entry under test: Cc1ccc(-n2c(C)cc(/C=N\NC(=O)CC(=O)NC(C)C)c2C)cc1 . Its activation was 16.1

Entry under test: CCOC(=O)C1C(c2ccc(OC)c(OC)c2)c2c([nH][nH]c2=O)CC1(C)O (stereo not given) . Its activation was 3.71

Entry under test: CCOc1ccc(NC(=O)N2CC=C(n3c(=O)[nH]c4ccccc43)CC2)cc1 . Its activation was 6.44

Entry under test: COc1ccc(-c2cc(C(=O)N(C)Cc3ccc(OC)c(OC)c3OC)c3ccccc3n2)cc1OC . Its activation was 8.62

Entry under test: C[C@H](NC(=O)c1nc[nH]c1C(=O)NCC(=O)OC(C)(C)C)C(=O)OCc1ccccc1 . Its activation was 11.1

Entry under test: Oc1ccccc1N1CCN(c2ncnc3sc(-c4ccccc4)cc23)CC1 . Its activation was 2.9

Entry under test: O=C(Oc1ccc(-c2nnco2)cc1)c1ccc(F)c(S(=O)(=O)N2CCOCC2)c1 . Its activation was 14.6

Entry under test: CCCCNc1c(-c2cccc(Sc3ccc(OC)cc3)c2)nc2ccccn12 . Its activation was 6.5

Entry under test: COC(=O)Cc1nnn2c1[C@H](C)[C@H](c1ccccc1Br)OCC2 . Its activation was 7.69

###

Assayed target: Trace amine-associated receptor 1 (Homo sapiens) (UniProt Q96RJ0)
Assay details: TAAR1 activation by candidate antagonists – cell-based, fluorescence, counter-screen for TAAR1 antagonist project (AID 651955);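 further: CHO cells stably expressing TAAR1 with calcium dye readout; 0% = DMSO vehicle and 100% = full agonist response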
Conditions: hTAAR1 cell line, agonist mode, at 3 µM, hits give high values
The campaign covered roughly 2,400 compounds. About 40 (2%) were called active. Only a sample is shown.
Measured property: activation

Entry under test: Nc1nonc1-n1nnc(C(=O)N/N=C/c2c[nH]c3ccccc23)c1-c1ccccc1 . Its activation was 2.36% (inactive)

Entry under test: COc1ccc(C2=NOC(Cn3nc(C(=O)NCc4ccc5c(c4)OCO5)cc3-c3ccccc3)C2)cc1 (stereo not given) . Its activation was 6.17% (inactive)

Entry under test: O=C(Nc1ccc(-c2nnc(-c3ccccc3)o2)cc1)c1ccc(Br)o1 . Its activation was -1.1% (inactive)

Entry under test: CC/C(=N/Nc1ccccc1)c1cnnc(SC)n1 . Its activation was -4.06% (inactive)

Entry under test: COc1ccc(NC(=O)C2CCCN(S(=O)(=O)c3cccc4cccnc34)C2)cc1OC (stereo not given) . Its activation was 5.06% (inactive)
